Where do these numbers come from? They come from patent US11028167.

- testTarget: SARS-CoV-2 Receptor Binding Domain (RBD) protein (SARS-CoV-2, UniProt P0DTC2 319-541)
- runDescription: SPR, scFv captured by anti-V5, RBD analyte
Consider the following binders; for each one, report its koff.

Write down koff measured for item COVID19_R02_D07 (scFv, V domains shown) VH: QVQLVQSGAEVKKPGASVKVSCKASGYTFTENEMHWVRQAPGQGLEWMGIINPSGGSTSYAQKFQGRVTMTRDTSTSTVYMELSSLRSEDTAVYYCTREGPPQLLRTLDYWGQGTLVTVSS VL: DIQMTQSPSSLSASVGDRVTITCRASQSISSYLNWYQQKPGKAPKLLIYHTSNLETGVPSRFSGSGSGTDFTLTISSLQPEDFATYYCQQSYSFPATTFGGGTKVEIKR
0.00043 s⁻¹

Write down koff measured for item COVID19_P06_C09 (scFv, V domains shown) VH: QVQLVQSGAEVKKPGASVKVSCKASGYTFTSYEINWVRQAPGQGLEWMGVINPSGGHTNYAQKFQGRVTMTRDTSTSTVYMELSSLRSEDTAVYYCTREGIPQLAGTLDYWGQGTLVTVSS VL: DIQMTQSPSSLSASVGDRVTITCRASQSISGYLNWYQQKPGKAPKLLIYAASSLESGVPSRFSGSGSGTDFTLTISSLQPEDFATYYCQQGYTTPRTFGGGTKVEIKR
0.00074 s⁻¹

Write down koff measured for item COVID19_R02_F08 (scFv, V domains shown) VH: QVQLVQSGAEVKKPGASVKVSCKASGYTFGNYAINWVRQAPGQGLEWMGAIYPGNSDTTYNQKFQGRVTMTRDTSTSTVYMELSSLRSEDTAVYYCARDTVMGGMDVWGQGTLVTVSS VL: DIQMTQSPSSLSASVGDRVTITCRASQEISGYLSWYQQKPGKAPKLLIYAASSLQSGVPSRFSGSGSGTDFTLTISSLQPEDFATYYCQQYVSYPWTFGGGTKVEIKR
0.00071 s⁻¹
